Test: MRT in CD1 mouse at 10 mg/kg, po by LC-MS/MS analysis
Format: ADME, organism-based
Settings: in vivo

[
  {
    "molecular string": "C[C@@H]1CN2c3c(cc4c(N5CCOC5=O)noc4c3F)CC3(C(=O)NC(=O)NC3=O)[C@H]2[C@H](C)O1",
    "unit label": "h",
    "MRT": 7.06
  },
  {
    "molecular string": "C[C@@H]1CN2c3c(cc4c(N5C[C@H](C)SC5=O)noc4c3F)CC3(C(=O)NC(=O)NC3=O)[C@H]2[C@H](C)O1",
    "unit label": "h",
    "MRT": 11.4
  },
  {
    "molecular string": "C[C@@H]1CN2c3c(cc4c(N5CC6(CC6)OC5=O)noc4c3F)CC3(C(=O)NC(=O)NC3=O)[C@H]2[C@H](C)O1",
    "unit label": "h",
    "MRT": 8.94
  }
]

----------
Test: AUCt in CD1 mouse at 10 mg/kg, po by LC-MS/MS analysis
Assay type: ADME, organism-based
Conditions: in vivo
# Lookup of reported AUC(0-t) keyed by entry
recorded metric: AUC(0-t) (ng·h/mL)

[
  {
    "molecular string": "C[C@@H]1CN2c3c(cc4c(N5CC6(CC6)OC5=O)noc4c3F)CC3(C(=O)NC(=O)NC3=O)[C@H]2[C@H](C)O1",
    "unit label": "ng·h/mL",
    "test result": 24200
  },
  {
    "molecular string": "C[C@@H]1CN2c3c(cc4c(N5C[C@H](C)SC5=O)noc4c3F)CC3(C(=O)NC(=O)NC3=O)[C@H]2[C@H](C)O1",
    "unit label": "ng·h/mL",
    "test result": 22500
  },
  {
    "molecular string": "C[C@@H]1CN2c3c(cc4c(N5CCOC5=O)noc4c3F)CC3(C(=O)NC(=O)NC3=O)[C@H]2[C@H](C)O1",
    "unit label": "ng·h/mL",
    "test result": 748
  }
]

----------
Tested on: Streptococcus pneumoniae
Test: Antibacterial activity against penicillin-resistant Streptococcus pneumoniae after 18 to 20 hrs by CLSI-protocol based broth microdilution method
Type: functional
Here the recorded MIC is given for each entry.

[
  {
    "compound": "C[C@@H]1CN2c3c(cc4c(N5C[C@H](c6ccccc6)SC5=O)noc4c3F)CC3(C(=O)NC(=O)NC3=O)[C@H]2[C@H](C)O1",
    "MIC": "1 to 2 µg/mL"
  },
  {
    "compound": "C[C@@H]1CN2c3c(cc4c(N5C(=O)OCC56CC6)noc4c3F)CC3(C(=O)NC(=O)NC3=O)[C@H]2[C@H](C)O1 (racemic)",
    "MIC": "2 µg/mL"
  },
  {
    "compound": "C[C@@H]1CN2c3c(cc4c(N5C(=O)OC[C@@H]5C)noc4c3C#N)CC3(C(=O)NC(=O)NC3=O)[C@H]2[C@H](C)O1",
    "MIC": "2 to 8 µg/mL"
  }
]

----------
Catalogue of compounds with associated Tmax
Test: Tmax in CD1 mouse at 10 mg/kg, po by LC-MS/MS analysis
Assay type: ADME, organism-based
Settings: in vivo

[
  {
    "molecular string": "C[C@@H]1CN2c3c(cc4c(N5CCOC5=O)noc4c3F)CC3(C(=O)NC(=O)NC3=O)[C@H]2[C@H](C)O1",
    "Tmax, min": 34.8
  },
  {
    "molecular string": "C[C@@H]1CN2c3c(cc4c(N5C[C@H](C)SC5=O)noc4c3F)CC3(C(=O)NC(=O)NC3=O)[C@H]2[C@H](C)O1",
    "Tmax, min": 79.8
  },
  {
    "molecular string": "C[C@@H]1CN2c3c(cc4c(N5C[C@@H](C)SC5=O)noc4c3F)CC3(C(=O)NC(=O)NC3=O)[C@H]2[C@H](C)O1",
    "Tmax, min": 34.8
  },
  {
    "molecular string": "C[C@@H]1CN2c3c(cc4c(N5CC6(CC6)OC5=O)noc4c3F)CC3(C(=O)NC(=O)NC3=O)[C@H]2[C@H](C)O1",
    "Tmax, min": 160
  },
  {
    "molecular string": "COC[C@H]1CN(c2noc3c(F)c4c(cc23)CC2(C(=O)NC(=O)NC2=O)[C@H]2[C@H](C)O[C@H](C)CN42)C(=O)S1",
    "Tmax, min": 34.8
  }
]
